Tested on: lambsquarters
assay_summary: Test C postemergence
Format: in vivo, Chenopodium album
condition_description: 16 g ai/ha, postemergence; 0 is no effect, 100 is complete control
attribute_measured: Plant response rating (0 to 100), Lambsquarters
Field format: numeric only.

For orientation, consider the following solved cases.
FCc1cccc(Oc2ncc(F)cn2)c1-n1cc(I)cn1 :: 40
Cc1cnc(Oc2cccc(C#N)c2-n2cc(C(F)(F)F)cn2)nc1 :: 35

Next item in the queue.
Tested on lambsquarters: N#Cc1cnn(-c2c(Br)cccc2Oc2ncc(Cl)cn2)c1 . Observed Plant response rating (0 to 100), Lambsquarters: 35

---

Tested on: giant foxtail
assay_summary: Test A postemergence
Assay type: in vivo, Setaria faberii
condition_description: 500 g ai/ha, 0 to 100 scale where 0 is no effect and 100 is complete control
// Plant response rating, Foxtail, Giant lookup, one value per entry
Please state the value as a number alone, without comment.

Previously resolved entries follow.
COc1cnc(Oc2ccccc2-n2cccn2)nc1 [Compound 227] :: 10
FC(F)(F)c1cccc(Oc2ncc(Br)cn2)c1-n1cc(Br)cn1 [Compound 77] :: 90

The compound listed as C[Si](C)(C)C#Cc1cccc(Oc2ncc(Cl)cn2)c1-n1cc(Br)cn1 [Compound 293] has a reported Plant response rating, Foxtail, Giant of 30
